SYSTEM TESTED: H3 receptor (Rattus norvegicus)
Construct: The frontal cortex dissected from rats was homogenized; from tissue; host or cells: rat frontal cortex membrane fraction
EXPERIMENTAL PROTOCOL: Rat H3 receptor binding test (N-α-methyl[3H]histamine, frontal cortex membrane fraction)
CONDITION SET: N-α-methyl[3H]histamine 0.75 nM, room temperature, an hour
Counter-ions that a name gives are not always drawn.
PARAMETER MEASURED: pIC50
Answers are plain numbers, as −log10 of the molar value.

**Q:** Returns the measured pIC50 for the input molecule. Input: CC(=O)c1ncn(-c2ccc(OC3CCN(C4CCC4)CC3)cc2)n1 [Compound No. 40, hydrochloride]
**A:** 8.19

**Q:** Do the same for Cc1c(C(=O)N2CCC2)nnn1-c1ccc(OC2CCN(C3CCC3)CC2)cc1 [compound 10] please
**A:** 7.43

**Q:** Do the same for N#Cc1cn(-c2ccc(OC3CCN(C4CCC4)CC3)cc2)nn1 [Compound No. 21, hydrochloride] please
**A:** 7.89

**Q:** Do the same for CC(C)(C)c1cn(-c2ccc(OC3CCN(C4CCC4)CC3)cc2)nn1 [compound 7] please
**A:** 8.31

**Q:** Do the same for O=C(O)c1cn(-c2ccc(OC3CCN(C4CCC4)CC3)cc2)nn1 [Compound No. 17, hydrochloride] please
**A:** 6.88

**Q:** Do the same for O=C(O)c1ncn(-c2ccc(OC3CCN(C4CCC4)CC3)cc2)n1 [Compound No. 38, hydrochloride] please
**A:** 6.80

**Q:** Do the same for CC(C)(O)c1cn(-c2ccc(OC3CCN(C4CCC4)CC3)cc2)nn1 [compound 6] please
**A:** 7.92

**Q:** Do the same for O=C(Cc1cn(-c2ccc(OC3CCN(C4CCC4)CC3)cc2)nn1)N1CCC1 [compound 13] please
**A:** 7.72

# batch size: 3; output pIC50 per entry
1. CCOC(=O)c1cn(-c2ccc(OC3CCN(C(C)(C)C)CC3)cc2)nn1 [Compound No. 27]
2. N#Cc1ncn(-c2ccc(OC3CCN(C4CCC4)CC3)cc2)n1 [Compound No. 41]
3. CCOC(=O)c1ncn(-c2ccc(OC3CCN(C4CCC4)CC3)cc2)n1 [Compound No. 33]

**A:**
1: 7.15; 2: 8.19; 3: 8.35

# batch size: 3; output pIC50 per entry
1. c1cc(-n2cc(C3CC3)nn2)ccc1OC1CCN(C2CCC2)CC1 [Compound No. 4]
2. C[C@@H]1CCCN1CCCOc1ccc(-n2cc(C(=O)N3CCC3)nn2)cc1 [compound 16]
3. CC(C)(C)N1CCC(Oc2ccc(-n3cc(C#N)nn3)cc2)CC1 [Compound No. 32]

**A:**
8.44
7.80
7.17

# batch size: 3; output pIC50 per entry
1. CNC(=O)c1cn(-c2ccc(OC3CCN(C(C)(C)C)CC3)cc2)nn1 [Compound No. 30]
2. CC(C)(C)N1CCC(Oc2ccc(-n3cc(C(=O)N4CCC4)nn3)cc2)CC1 [Compound No. 29]
3. CC(C)(C)N1CCC(Oc2ccc(-n3cc(C(=O)N4CCCC4)nn3)cc2)CC1 [Compound No. 28]

**A:**
[6.90, 7.32, 7.48]

----------
SYSTEM TESTED: histamine H3 receptor (Rattus norvegicus, UniProt Q9QYN8)
Construct: The frontal cortex dissected from rats was homogenized
Sequence (Q9QYN8 whole entry): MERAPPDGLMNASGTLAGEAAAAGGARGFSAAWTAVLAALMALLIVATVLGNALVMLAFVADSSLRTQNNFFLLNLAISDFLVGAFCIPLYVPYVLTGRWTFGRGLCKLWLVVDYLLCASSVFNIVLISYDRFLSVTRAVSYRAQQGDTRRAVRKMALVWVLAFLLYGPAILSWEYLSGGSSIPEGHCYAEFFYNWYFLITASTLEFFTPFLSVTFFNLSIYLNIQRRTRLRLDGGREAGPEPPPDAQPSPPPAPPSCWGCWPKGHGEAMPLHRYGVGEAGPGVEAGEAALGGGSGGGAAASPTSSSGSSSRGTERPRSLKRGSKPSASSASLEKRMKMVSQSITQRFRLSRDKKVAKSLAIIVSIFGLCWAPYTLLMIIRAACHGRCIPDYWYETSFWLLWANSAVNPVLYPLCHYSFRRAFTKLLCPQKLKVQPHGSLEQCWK
EXPERIMENTAL PROTOCOL: [35S]GTP-γ-S binding test (R(−)-α-methyl histamine stimulated, frontal cortex membrane fraction)
CONDITION SET: R(−)-α-methyl histamine 300 nM, [35S]GTP-γ-S 0.3 nM
PARAMETER MEASURED: IC50

**Q:** Returns the measured IC50 for the input compound. Input: `O=C(c1cn(-c2ccc(OC3CCN(C4CCC4)CC3)cc2)nn1)N1CCCC1`
**A:** ≤ 100 nM
